# System: Fibroblast
# test summary: Incucyte cell viability with human fibroblast; note: unitless GR value; below 1 slowed growth and below 0 cell loss
# Type: toxicity, cell-based
# test conditions: 24 h, 10 µM, compound concentration 10 uM, replicate number 1
readout name: Growth Rate
Enter a number only.

Take a look at these entries with their results.
>>> value_reported("CC(=O)N1CCc2c(c(N3CCCc4cc(-c5cnn(C)c5)c(C(F)F)cc43)nn2C2CCOCC2)C1")
0.79
>>> value_reported("O=C(NO)c1ccc(CN(c2cnccn2)c2cnccn2)cc1")
1
>>> value_reported("CCC(CC)(NC(=O)C(C)C)C(=O)N[C@@H](CCCNC(=N)N)C(=O)NC1(C(=O)NC(c2ccc(F)cc2)c2ccc(F)cc2)CCCC1")
0.56
>>> value_reported("CCc1ccccc1NC(=O)CSC(=O)NNC(=O)[C@H](Cc1c[nH]c2ccccc12)NC(=O)OC(C)(C)C")
1
>>> value_reported("CC(C)N(CCCNC(=O)Nc1ccc(C(C)(C)C)cc1)C[C@H]1O[C@@H](n2ccc3c(N)ncnc32)[C@H](O)[C@@H]1O")
1

Request: Give Fibroblast Growth Rate for the following compound: "O=C(CCCCCCC(=O)Nc1ccc([C@H]2O[C@@H](CSc3nc(-c4ccccc4)c(-c4ccccc4)o3)C[C@@H](c3ccc(CO)cc3)O2)cc1)NO"
Result: 1

Request: Supply Growth Rate measured with Fibroblast for "CC(C)(F)C[C@H](N[C@@H](c1ccc(-c2ccc(S(C)(=O)=O)cc2)cc1)C(F)(F)F)C(=O)NC1(C#N)CC1" .
Result: 0.39
